# Subject Of Test: E3 ubiquitin-protein ligase XIAP (Homo sapiens) (UniProt P98170)
# Sequence (P98170 whole entry, looked up): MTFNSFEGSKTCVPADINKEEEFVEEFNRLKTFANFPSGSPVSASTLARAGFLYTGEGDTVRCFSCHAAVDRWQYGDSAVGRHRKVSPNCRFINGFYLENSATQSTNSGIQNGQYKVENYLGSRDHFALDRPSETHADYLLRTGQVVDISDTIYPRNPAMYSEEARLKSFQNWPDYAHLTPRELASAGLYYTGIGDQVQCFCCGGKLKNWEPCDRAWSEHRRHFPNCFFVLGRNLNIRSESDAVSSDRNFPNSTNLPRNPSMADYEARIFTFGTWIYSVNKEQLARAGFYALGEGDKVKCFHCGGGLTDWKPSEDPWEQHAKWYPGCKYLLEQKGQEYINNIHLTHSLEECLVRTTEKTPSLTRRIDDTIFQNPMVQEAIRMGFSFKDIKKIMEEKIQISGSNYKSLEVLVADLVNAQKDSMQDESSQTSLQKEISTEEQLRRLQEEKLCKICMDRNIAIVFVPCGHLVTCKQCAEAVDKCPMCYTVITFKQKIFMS
# Test Protocol: XIAP binders, primary screen, biophysical, small-molecule microarray, fluorescence 635 nm (AID 1181);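 note: score merges 667 nm emission and signal to noise over triplicate slides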
# Test Conditions: small-molecule microarray binding, higher = more signal
Label rule, in plain words: composite z-score of 0.3 and up is 1.0, under 0.3 is 0.0.

Consider the worked cases shown below.
>>> assigned_label("O=C/C=C/c1ccc(/C=C/c2ccccc2)cc1")
0.0
>>> assigned_label("CC(C)C[C@@H]1NC(=O)[C@H]2C[C@@H](C(=O)NCCCCCC[N+](C)(C)C)[C@@H](c3ccc(O)cc3)N2C1=O")
0.0
>>> assigned_label("Cc1ccc(S[C@]2(C(=O)NCCCN(C)C)CC(=O)N(C3CCCCC3)[C@@H]2c2ccc(CO)cc2I)cc1")
0.0

Confirm if composite z-score reported for the molecule CC(C)CN1C(=O)[C@@]2(Cc3ccccc31)c1ccccc1C(=O)N(C1CCCCC1)[C@H]2c1ccc(CO)cc1 is 0.3 or above.
1.0

Confirm if composite z-score reported for the molecule COC(=O)C1=CC(c2ccc(CO)cc2)=CC(c2cccs2)N(Cc2cccc(OC(F)(F)F)c2)C=C1C(=O)OC (stereo not drawn) is 0.3 or above.
0.0

Confirm if composite z-score reported for the molecule COC(=O)[C@@]1(Cc2ccc(OC)cc2)[C@H]2c3cc(C(=O)N(C)C)n(Cc4ccc(C)c(F)c4F)c3C[C@H]2CN1C(=O)c1ccccc1 is 0.3 or above.
1.0

Confirm if composite z-score reported for the molecule O=C1NC(=O)C2C1C=CC(C(O)C=Cc1ccc([N+](=O)[O-])cc1)N2Nc1ccccn1 (stereo not drawn) is 0.3 or above.
0.0

Confirm if composite z-score reported for the molecule COC(=O)[C@@]1(Cc2ccccc2CN=[N+]=[N-])N=C(c2ccc(OCCCO)cc2)O[C@H]1c1ccccc1N=[N+]=[N-] is 0.3 or above.
0.0

Hello, the source for this data is PubChem BioAssay, in case you need it.
